test system: SARS-CoV-2 (USA-WA1/2020) in Calu-3 cells; type: cell-based; conditions: low dose (100 nM), Calu-3, 48 h
quantityKind: dsRNA signal, AU Low (AU)
# output: bare number, implied unit AU

See these solved cases before continuing.
O=c1cc(CN2CCOCC2)occ1OCCCCCSc1ccnc2cc(C(F)(F)F)ccc12 : 17099.7
Cc1ccccc1CN1C(=O)C2=C(CCN(Cc3ccccc3)C2)N2CCN=C12 : 1481.6
Cc1cnc(Nc2ccc(OCCN3CCCC3)cc2)nc1Nc1cccc(S(=O)(=O)NC(C)(C)C)c1 : 15118.2

Challenge: Test system SARS-CoV-2 (USA-WA1/2020) in Calu-3 cells; read-out dsRNA signal, AU Low; what value for `C=CC(=O)N1CCC(Oc2cc3c(Nc4ccc(Cl)c(Cl)c4F)ncnc3cc2OC)CC1` ?
Response given: 63934.7

Challenge: Reported dsRNA signal, AU Low for SARS-CoV-2 (USA-WA1/2020) in Calu-3 cells, given `NC1(Cc2ccc(Cl)cc2)CCN(c2ncnc3[nH]ccc23)CC1` ?
Response given: 9152.4

Challenge: I'm curious: which dsRNA signal, AU Low was measured for `Cn1cc(-c2ccc3nnc(C(F)(F)c4ccc5ncccc5c4)n3n2)cn1` tested on SARS-CoV-2 (USA-WA1/2020) in Calu-3 cells?
Response given: 32468.4

Challenge: Form: Entry = `S=C(NCc1ccc2c(c1)OCO2)N1CCN(c2ncnc3c2oc2ccccc23)CC1` | System = SARS-CoV-2 (USA-WA1/2020) in Calu-3 cells | dsRNA signal, AU Low = ____
Response given: 32179.3

Challenge: Lab note: need dsRNA signal, AU Low for `CCN1C(=O)CNc2ncc(-c3ccc(-c4nc[nH]n4)nc3C)nc21` on SARS-CoV-2 (USA-WA1/2020) in Calu-3 cells, anyone have it?
Response given: 44138.8

Challenge: Requested read-out dsRNA signal, AU Low, target or system SARS-CoV-2 (USA-WA1/2020) in Calu-3 cells, entry `O=C1NCCCc2c1oc1ccc(O)cc21`
Response given: 7582.1

Challenge: Entry COc1ccc(S(=O)(=O)N(CCO)c2ccccc2CN(C)C/C=C/c2ccc(Cl)cc2)cc1.O=P(O)(O)O [KN-93 Phosphate] , system SARS-CoV-2 (USA-WA1/2020) in Calu-3 cells: what dsRNA signal, AU Low was measured?
Response given: 2840.4
